Source of measurements: paper PMC10397247

# interaction score per record follows
- measurement.target: T1, 4H3016-AA
- T1 chain: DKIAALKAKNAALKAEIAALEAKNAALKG
- assay.details: two-hybrid library CCmax;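 note: natural log of median RNA to DNA barcode read ratio; higher means stronger binding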
- run.parameters: mean of both orientations
Respond using a number only.

// worked examples, interaction score included
>>> measured_result("DKIAALKAEIAALKAENAALKAEIAALEG [4H2649-AA]")
-1.64
>>> measured_result("DEIAALEAENAALEAKIAALKAKIAALKG [4H174-AA]")
1.81
>>> measured_result("DKIAALEAKIAALKAENAALEAKIAALEG [4H2389-AA]")
0.227
>>> measured_result("DENAALKAKIAALKAENAALEAKIAALEG [4H1877-AA]")
0.714
>>> measured_result("DENAALEAKNAALKAEIAALEAKIAALKG [4H1478-AA]")
-1.29

input: Could you tell me which interaction score is on file for DKIAALKAENAALEAEIAALKAEIAALKG [4H2698-AA] ?
output: 0.539

input: # iterate: DKIAALEAENAALKAKIAALEAEIAALKG [4H2274-AA]
output: -1.01

input: How about this binder: DENAALKAEIAALKAENAALKAEIAALKG [4H1626-AA]
output: -1.84

input: Would you kindly repeat that for DKIAALEAEIAALEAKNAALKAKIAALEG [4H2109-AA] ?
output: -1.16

input: Also DENAALEAEIAALKAKNAALEAKIAALKG [4H1142-AA] , if possible.
output: 0.156

input: Cool, now DENAALKAKIAALEAKNAALEAEIAALKG [4H1842-AA]
output: -1.43

input: Further, for DENAALEAKIAALEAENAALKAKIAALKG [4H1310-AA] ?
output: 0.425

input: // query: DEIAALEAENAALEAKIAALKAENAALEG [4H171-AA]
output: 1.66

input: Moving on to the next binder: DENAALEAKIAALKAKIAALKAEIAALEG [4H1385-AA]
output: -0.959
